test: NCI Yeast Anticancer Drug Screen. Data for the bub3 strain (AID 167); details: S. cerevisiae bub3 mutant strain, at 50.0 µM, hits give high values
About 79,000 compounds went through this panel and 15% of them were active in at least one assay; those are over-represented in the sample as a whole.
MEASURED PARAMETER: growth inhibition (%)
Number only, in %; omit the unit.

Incoming: Requested read-out: growth inhibition. Entry: C[C@H](CCC1=NC(C)(C)CO1)C1CCC2[C@@H]3C(O)C[C@@H]4CC(O)CC[C@]4(C)C3CC[C@@]21C (stereo partly specified)
Outgoing: 98.5

Incoming: Repeat with `O=C1c2cccc3cccc(c23)C(=O)N1O`
Outgoing: 83.3

Incoming: Repeat with O=S(=O)(c1cccc(C(F)(F)F)c1)N1c2ccccc2-n2cccc2C1c1cccnc1 (stereo unspecified)
Outgoing: 94.7

Incoming: Repeat with CC(=O)/C(=C\c1ccc(Cl)c(Cl)c1)C(=O)C(C)CN(C)C (stereo unspecified)
Outgoing: 82.8

Incoming: Repeat with CC(CC/C(=N/O)c1ccccc1)(CC/C(=N\O)c1ccccc1)[N+](=O)[O-] (stereo unspecified)
Outgoing: 90.8

Incoming: Repeat with `O=C(O)c1ccc2cc(Cl)c3ccccc3c2c1`
Outgoing: 91.4

Incoming: Repeat with CC1(C)C(O)OC(O)C1(C)C (stereo unspecified)
Outgoing: 37.4

Incoming: Repeat with `CC(C)OC(=O)NNc1c(Cl)cc(Cl)cc1Cl`
Outgoing: 93.2

Incoming: Repeat with `Nc1ccc2c(c1)C(=O)c1c(F)cccc1-2`
Outgoing: 9

Incoming: Repeat with `Cc1cc2nc3ccccc3n2c2ccccc12`
Outgoing: 69

Incoming: Repeat with `CCc1c(Cl)c(C)c(Cl)c(O)c1Cl`
Outgoing: 92.9

Incoming: Repeat with CC1CCC(C2=CSC3CCCCC3N2)CC1 (stereo unspecified)
Outgoing: 66

Incoming: Repeat with `OC1(C#CI)CCCCC1`
Outgoing: 99.3

Incoming: Repeat with `CCCCCc1c(CCCC)c(=O)[nH]c2cc(CNCC(OC)OC)ccc12`
Outgoing: 91.2

Incoming: Repeat with `CCC(=O)Nc1ccc(N=NN(C)C)cc1`
Outgoing: 0.3

Incoming: Repeat with Cc1cccc(C)c1NC(=O)CCC(=O)C(C)C(=O)c1ccc(O)cc1 (stereo unspecified)
Outgoing: 11.8

Incoming: Repeat with `N#[N+]c1c([O-])c2ccccc2c2ccccc12`
Outgoing: 44

Incoming: Repeat with `CC(C)(Br)C(=O)/C=C/c1ccccc1`
Outgoing: 22.1

Incoming: Repeat with `Oc1ccc(C2(c3ccc(O)cc3)CCCC2)cc1`
Outgoing: 92.1

Incoming: Repeat with `Cc1ccc(Nc2n[nH]c(=S)s2)c(C)c1`
Outgoing: 52.5

Incoming: Repeat with `O=C(O)C(=Cc1ccc(-c2ccccc2)cc1)C(=O)O`
Outgoing: 71.8

Incoming: Repeat with `O=S1(=O)CCC2=CC(C(F)(F)F)=CC(C(F)(F)F)=CN21`
Outgoing: 96.9

Incoming: Repeat with `Cn1c(-c2ccc(/C=N\N3CCN(/N=C/c4ccc(-c5c[n+]6ccsc6n5C)cc4)CC3)cc2)c[n+]2ccsc12`
Outgoing: 16.4

Incoming: Repeat with `COC(=O)C1=C(C(=O)OC)CC(n2nnc(C(=O)OC)c2C(=O)OC)=CC1`
Outgoing: -4.1

Incoming: Repeat with NC(=S)N/N=C1\c2ccccc2CCC1CCC1(O)CCc2ccccc2C1=O (stereo unspecified)
Outgoing: 46.1

Incoming: Repeat with `CSC(=S)N/N=C/c1ccccc1`
Outgoing: 90

Incoming: Repeat with `Brc1ccc(B2Nc3ccccc3N2)cc1`
Outgoing: 84.8

Incoming: Repeat with `CC(C)OP(=O)(OC(C)C)/C(Cl)=N/Nc1ccc([N+](=O)[O-])cc1`
Outgoing: 91.6

Incoming: Repeat with `O=C1c2cccc3cccc(c23)C(=O)N1CCNCCN1C(=O)c2cccc3cccc(c23)C1=O`
Outgoing: 0.65

Incoming: Repeat with `CCOC(=O)/C(=C/c1cccc(Cl)c1)N(CC)CC`
Outgoing: 83.5

Incoming: Repeat with `C=CCNC1=C2C[C@@H](C)C[C@H](OC)[C@H](O)[C@@H](C)/C=C(\C)[C@H](OC(N)=O)[C@@H](OC)/C=C\C=C(/C)C(=O)NC(=CC1=O)C2=O`
Outgoing: 90.4
